- target_or_test_system: Histamine H3 receptor (Rattus norvegicus, UniProt Q9QYN8)
- Sequence (Q9QYN8 whole entry): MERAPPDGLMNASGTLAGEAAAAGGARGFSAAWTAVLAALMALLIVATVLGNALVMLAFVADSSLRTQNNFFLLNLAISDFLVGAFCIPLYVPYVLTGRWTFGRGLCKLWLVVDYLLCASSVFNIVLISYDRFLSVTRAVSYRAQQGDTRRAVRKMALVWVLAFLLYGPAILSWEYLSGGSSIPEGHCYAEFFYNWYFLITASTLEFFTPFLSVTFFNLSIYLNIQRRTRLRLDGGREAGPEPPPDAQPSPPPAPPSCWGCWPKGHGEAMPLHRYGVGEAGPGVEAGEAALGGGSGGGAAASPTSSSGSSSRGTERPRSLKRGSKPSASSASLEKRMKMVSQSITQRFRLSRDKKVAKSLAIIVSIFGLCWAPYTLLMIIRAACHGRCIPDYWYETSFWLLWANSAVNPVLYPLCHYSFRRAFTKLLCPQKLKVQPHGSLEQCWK
- assay_name: Binding affinity at rat cortical Histamine H3 receptor
This section presents compounds with their documented Ki values.
assay_endpoint: Ki (nM)

>>> print(df.to_string())
                                   compound  assay_endpoint  unit_string  value_reported
0  CCOC(=O)N1CCN(CCCOc2ccc(-c3ccc(Br)cc3)cc2)CC1              Ki           nM             112
1  N#Cc1ccc(-c2ccc(OCCCN3CCCC(O)C3)cc2)cc1 (stereo not drawn)              Ki           nM            81.3
2  CCOC(=O)N1CCN(CCCOc2ccc(-c3ccc(C#N)cc3C)cc2)CC1              Ki           nM             102
